Test Target: P. falciparum apicoplast DNA polymerase (Pf-apPOL) (Plasmodium falciparum, UniProt Q8ILY1)
Sequence (Q8ILY1 entry or part of it): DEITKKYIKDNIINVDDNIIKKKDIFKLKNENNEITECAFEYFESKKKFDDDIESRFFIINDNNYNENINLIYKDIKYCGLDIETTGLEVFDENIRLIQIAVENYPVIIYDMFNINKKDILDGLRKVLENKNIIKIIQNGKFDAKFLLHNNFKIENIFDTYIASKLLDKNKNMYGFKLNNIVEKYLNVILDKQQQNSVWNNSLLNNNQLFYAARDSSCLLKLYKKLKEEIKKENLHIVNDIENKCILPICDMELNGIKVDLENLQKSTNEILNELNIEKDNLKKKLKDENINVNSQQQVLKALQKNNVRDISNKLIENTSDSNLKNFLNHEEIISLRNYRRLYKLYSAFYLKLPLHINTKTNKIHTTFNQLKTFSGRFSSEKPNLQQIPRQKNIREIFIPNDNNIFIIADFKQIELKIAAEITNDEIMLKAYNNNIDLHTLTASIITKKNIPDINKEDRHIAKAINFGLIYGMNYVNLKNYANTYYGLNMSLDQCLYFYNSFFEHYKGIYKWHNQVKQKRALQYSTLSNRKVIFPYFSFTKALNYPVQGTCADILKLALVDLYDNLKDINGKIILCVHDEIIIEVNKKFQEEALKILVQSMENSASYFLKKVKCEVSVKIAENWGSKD
Method Description: Fluorescence-based high-throughput DNA polymerase assay (molecular beacon), primary screen and dose-response
Assay type: biochemical
Condition Summary: DRC-1; concentration 2.5; 90'
Attribute Measured: % inhibition Apol 90' (%)
One number for each entry, in %.

| Compound | Measurement Units | % inhibition Apol 90' |
| --- | --- | --- |
| COc1ccc(-c2occ(C(=O)O)c2C(=O)O)cc1 | % | 6.208 |
| CCCCCc1c2c(cc(O)c1C(=O)O)OC(=O)c1c(cc(OC)cc1C(=O)CCCC)O2 | % | 17.5572 |
| CCCN1COc2ccc3c(=O)c(-c4ccccc4)coc3c2C1 | % | 6.953 |
| O=C(O)c1nc(-c2ccccc2)nc2c1OCO2 | % | -0.7182 |
| CCc1ccccc1NC(=O)c1ccc(-c2ncccc2NC(C)=O)cc1 | % | 2.255 |

Look up % inhibition Apol 90' for the entries below, preserving their order.
1. O=C(Nc1c2c(nn1-c1ccccc1)CSC2)c1ccco1
2. COc1cc(/C=C2\C(=O)N(c3ccc(C(=O)O)cc3)N=C2C(F)(F)F)ccc1OCC(C)C
3. COc1ccc(C=C2Oc3c(ccc4c3CN(Cc3ccco3)CO4)C2=O)c(OC)c1

10.2281
15.3217
6.394

Look up % inhibition Apol 90' for the entries below, preserving their order.
1. O=C1c2ccccc2C(=O)c2c1oc1c3c(ccc21)OCN(C1CCCC1)C3
2. O=C(Cn1ccc2c(=O)[nH]ccc21)Nc1ccccc1Cl [Molecule 19, O=C(Cn1ccc2c1cc[nH]c2=O)Nc1ccccc1Cl]

1: 11.9333; 2: 3.184

The measured % inhibition Apol 90' that `COc1ccc(NC(=O)Cn2nc3c(cc2=O)CCC3)cc1Cl` showed for P. falciparum apicoplast DNA polymerase (Pf-apPOL) (Plasmodium falciparum, UniProt Q8ILY1) is -5
